Assay: Selectivity index, ratio of CC50 for human MT4 cells to EC50 for HIV-1 3B
Assay type: toxicity, cell-based
Conditions: read-out: Ratio CC50/EC50
Please respond with reported selectivity ratio for every item in the list.

Would you please look over these solved cases?
- Entry Smiles: "Cc1cc(C)cc(Cn2c(SCC(=O)Nc3ccccc3[N+](=O)[O-])nc3ccc(Cl)cc32)c1"
  selectivity ratio: "≤ 5"
- Entry Smiles: "Cc1cc(C)cc(S(=O)(=O)n2c(SCC(=O)Nc3ccccc3Br)nc3ccccc32)c1"
  selectivity ratio: "≥ 3930"
- Entry Smiles: "Cc1cc(C)cc(S(=O)(=O)n2c(SCC(=O)Nc3ccc(C)cc3Cl)nc3ccc(Cl)cc32)c1"
  selectivity ratio: "> 149"
- Entry Smiles: "Cc1cc(C)cc(S(=O)(=O)n2c(SCC(=O)Nc3ccccc3[N+](=O)[O-])nc3ccccc32)c1"
  selectivity ratio: "≥ 652"
- Entry Smiles: "COC(=O)c1ccc(NC(=O)CSc2nc3ccc(Cl)cc3n2S(=O)(=O)c2cc(C)cc(C)c2)c(Cl)c1"
  selectivity ratio: "≥ 27"

Kindly review the next compound as well.
Qu. Report selectivity ratio for Cc1cc(C)cc(Cn2c(SCC(=O)Nc3ccc(C)cc3Cl)nc3ccc(Cl)cc32)c1 please.
Ans. < 1

---

Experiment: Cytotoxicity against human MT4 cells assessed as cell viability
Format: cell-based
I'd appreciate it if you could supply CC50 values for the items below.

The cases that follow already have their CC50 on record.
- Entry Smiles: "COC(=O)c1ccc(NC(=O)CSc2nc3ccc(Cl)cc3n2S(=O)(=O)c2cc(C)cc(C)c2)c(Cl)c1"
  CC50: "≥ 130 µM"
- Entry Smiles: "Cc1cc(C)cc(S(=O)(=O)n2c(SCC(=O)Nc3ccccc3[N+](=O)[O-])nc3ccc(Cl)cc32)c1"
  CC50: "> 235 µM"
- Entry Smiles: "O=C1Nc2ccc(Cl)cc2[C@@](C#CC2CC2)(C(F)(F)F)O1"
  CC50: "> 6.34 µM"

Proceed to the following item.
Qu. Please report the recorded CC50 for Cc1cc(C)cc(Cn2c(SCC(=O)Nc3ccccc3Br)nc3ccccc32)c1 .
Ans. ≥ 144 µM

---

Please respond with reported selectivity ratio for every item in the list.
Experiment: Selectivity index, ratio of CC50 for human MT4 cells to EC50 for HIV-1 3B
Assay type: toxicity, cell-based
Conditions: read-out: Ratio CC50/EC50
Numbers only.

Example molecules with recorded selectivity ratio:
- Entry Smiles: "COC(=O)c1ccc(NC(=O)CSc2nc3ccccc3n2S(=O)(=O)c2cc(C)cc(C)c2)c(Cl)c1"
  selectivity ratio: 1320
- Entry Smiles: "Cc1cc(C)cc(S(=O)(=O)n2c(SCC(=O)Nc3ccc(S(C)(=O)=O)cc3Cl)nc3ccc(Cl)cc32)c1"
  selectivity ratio: 7

Record selectivity ratio per entry; entries follow.
1. COC(=O)c1ccc(NC(=O)CSc2nc3ccccc3n2Cc2cc(C)cc(C)c2)c(Cl)c1
2. Cc1cc(C)cc(Cn2c(SCC(=O)Nc3ccccc3Cl)nc3ccc(Cl)cc32)c1
3. Cc1cc(C)cc(S(=O)(=O)n2c(=S)[nH]c3ccc(Cl)cc32)c1
4. Cc1cc(C)cc(Cn2c(SCC(=O)Nc3ccc(C)cc3Cl)nc3ccccc32)c1
5. Cc1cc(C)cc(Cn2c(SCC(=O)Nc3ccccc3Br)nc3ccc(Cl)cc32)c1

Ans.
1: 32; 2: 7; 3: 1860; 4: 32.1; 5: 5
